Hi there, I'd appreciate the recorded T/C for every entry that follows.
Test system: P388 leukemia ip, CD2F1 mice, survival T/C
Experimental details: NCI In Vivo Anticancer Drug Screen. Data for tumor model P388 Leukemia (intraperitoneal) in CD2F1 (CDF1) mice
Experimental conditions: endpoint: median survival time; dose: 200.0 mg/kg/injection; schedule: Q01DX005 (ip); vehicle: saline; higher = longer survival
Toxic doses and inconclusive results are not listed.

Solved cases (7 shown):
compound=O=C(Nc1ccc(N=Nc2ccc3cc(S(=O)(=O)O)cc(S(=O)(=O)O)c3c2)cc1)c1ccc(N=Nc2c(O)ccc3cc(S(=O)(=O)O)cc(S(=O)(=O)O)c23)cc1 observed="98 % of control"
compound=CN1CCN(CCCN2CC(=O)N3Cc4ccccc4CN3C(=O)C2)CC1 observed="103 % of control"
compound=CN1CCC/C1=C\C(=O)c1ccncc1 observed="124 % of control"
compound=NC(=O)NCP(=O)(CNC(N)=O)CNC(N)=O observed="95 % of control"
compound="CC(CC(=O)O)C(N)C(=O)O (stereo not drawn)" observed="101 % of control"
compound=O=C1OC[C@@H]2C=CC[C@H]12 observed="107 % of control"
compound=O=C(c1cc(-c2ccccc2)nc2ccccc12)n1c(=O)oc(=O)c2cc([N+](=O)[O-])ccc21 observed="99 % of control"

// below: T/C requested for another compound
[Q] // lookup T/C for Cc1cc(=O)[nH]c(=O)n1C1OC(CO)C(O)C1O (stereo not drawn)
[A] 112 % of control

* * *

Test system: P388 leukemia ip, CD2F1 mice, survival T/C
Experimental details: NCI In Vivo Anticancer Drug Screen. Data for tumor model P388 Leukemia (intraperitoneal) in CD2F1 (CDF1) mice
Experimental conditions: endpoint: median survival time; dose: 50.0 mg/kg/injection; schedule: Q04DX003 (ip); vehicle: saline with Tween-80; higher = longer survival
Inconclusive results and toxic doses are left out.
Hi there, I'd appreciate the recorded T/C for every entry that follows.

Solved cases (7 shown):
molecule=CCN1CCC(=O)C1 observed="104 % of control"
molecule=O=[N+]([O-])c1cc2[nH]cnc2c([N+](=O)[O-])c1N1CCOCC1 observed="104 % of control"
molecule=O=C1/C(=N/O)Cc2ccccc21 observed="100 % of control"
molecule=Cc1cc(C)c(C#N)c(=O)[nH]1 observed="105 % of control"
molecule=CC(C)(C)c1cc(C(C)(C)O)c2c(c1)C(C)(C)OS2 observed="99 % of control"
molecule="CCCCCCC1(O)OC(=O)C(C)=C1C (stereo not drawn)" observed="94 % of control"
molecule=N#Cc1ccc(C#N)cc1 observed="91 % of control"

[Q] // lookup T/C for CN(C)S(=O)(=O)c1cccc(N)c1
[A] 95 % of control

* * *

Hi there, I'd appreciate the recorded T/C for every entry that follows.
Tested on: P388 leukemia ip, CD2F1 mice, survival T/C
Experimental details: NCI In Vivo Anticancer Drug Screen. Data for tumor model P388 Leukemia (intraperitoneal) in CD2F1 (CDF1) mice
Experimental conditions: endpoint: median survival time; dose: 100.0 mg/kg/injection; schedule: Q01DX009 (ip); vehicle: saline with Tween-80; higher = longer survival
Toxic doses and inconclusive results are not listed.

molecule="COC(=O)/C=C1\\C(=O)OC2(C)CCCCC12 (stereo unspecified)" observed="97 % of control"
molecule=O=C(/C=C/c1ccc(OCc2ccccc2)cc1)c1c(F)cccc1F observed="98 % of control"
molecule=CN(/N=C/c1ccc2c(c1)OCO2)C(=O)c1ccccc1N observed="114 % of control"
molecule=CCn1c2ccccc2c2cc(N=Cc3cccc([N+](=O)[O-])c3)ccc21 observed="98 % of control"
molecule=CC(C)C(C#N)(C(=O)O)C(C)C observed="92 % of control"
molecule=O=C(CCl)N1CC2CCC(CC2)C1 observed="91 % of control"
molecule="OC1CC(OCc2ccccc2)CC1O (stereo unspecified)" observed="97 % of control"
molecule=CC(C)c1cc(C(F)(F)F)nc(NNc2nc(C(C)C)cc(C(F)(F)F)n2)n1 observed="104 % of control"

# return T/C for each item in the list
1. COC1C/C(=N\OC(C)=O)C2OC(c3ccccc3)OCC2O1 (stereo unspecified)
2. COc1ccc(C#CC2(O)c3ccccc3C(O)(C#Cc3ccc(OC)cc3)c3ccccc32)cc1 (stereo unspecified)
3. CC1CCCCC1C(C)(C#N)Nc1ccccc1 (stereo unspecified)

[A]
96 % of control
98 % of control
109 % of control

Data origin, for the record: PubChem BioAssay AID330
